- Tested on: HS27
- experimental.details: Antiproliferative activity against human HS27 cells after 24 hrs by MTT assay
- Type: cell-based
- assay.conditions: HS27, 24 h
pEC50: −log10 of the molar value.
assay.metric: pEC50

{"columns": ["structure.smiles.string", "recorded.measurement"],
 "data": [
  ["O=c1c(O)c(-c2ccc(O)c(O)c2)oc2cc(O)cc(O)c12", "< 4.00"],
  ["CC(C)(C)C(=O)OCOc1cc(O)c2c(=O)c(O)c(-c3ccc(O)c(O)c3)oc2c1", "< 4.00"],
  ["CC(C)(C)C(=O)OCOc1c(-c2ccc(O)c(O)c2)oc2cc(O)cc(O)c2c1=O", "< 4.00"]
]}
